biological target: T1, GST-human NOGO-A56 (human); assay: SPR (Biacore T100), antigen amine-coupled to CM5, antibody 0.125-8 nM; mean of six runs in duplicate (SD in brackets)
T1 construct: Expressed in E. coli BL21 from pGEX-6P1 and purified on glutathione-sepharose; the GST tag is part of the protein in the assays; also called GST-Nogo-A 5+6; GST Nogo-A 5 + 6
T1 sequence (chain, as listed by the source limits assumed): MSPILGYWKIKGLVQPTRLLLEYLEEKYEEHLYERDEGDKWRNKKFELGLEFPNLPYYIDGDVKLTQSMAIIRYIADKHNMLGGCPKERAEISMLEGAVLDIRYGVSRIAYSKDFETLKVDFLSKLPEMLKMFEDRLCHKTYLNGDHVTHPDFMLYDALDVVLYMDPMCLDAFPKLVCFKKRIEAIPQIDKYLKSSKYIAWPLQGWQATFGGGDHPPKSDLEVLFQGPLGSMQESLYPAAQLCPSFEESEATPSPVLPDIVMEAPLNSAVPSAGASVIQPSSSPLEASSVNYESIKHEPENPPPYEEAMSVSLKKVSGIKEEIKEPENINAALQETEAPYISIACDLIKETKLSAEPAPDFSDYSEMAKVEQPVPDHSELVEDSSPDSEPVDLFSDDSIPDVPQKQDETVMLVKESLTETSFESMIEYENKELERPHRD
MEASURED QUANTITY: pKd
Note: pKd values are expressed as the negative base-10 logarithm of concentration in M.

Check out these entries, answers already filled in.
{"BINDER": "H28L13 (antibody, human IgG1, kappa, V domains shown, IgG1 (L235A, G237A) / kappa; CAMPATH-1H signal (1-19) left out; also called H28FL L13FL) VH: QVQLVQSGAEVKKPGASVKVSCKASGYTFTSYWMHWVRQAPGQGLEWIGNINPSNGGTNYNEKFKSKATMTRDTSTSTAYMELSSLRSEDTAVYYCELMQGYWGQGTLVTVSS VL: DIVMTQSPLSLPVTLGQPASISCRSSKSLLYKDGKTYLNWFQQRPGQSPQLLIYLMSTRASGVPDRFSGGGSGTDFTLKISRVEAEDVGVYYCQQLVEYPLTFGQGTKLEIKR", "MEASURED QUANTITY": "pKd", "ENDPOINT RESULT": 8.95}
{"BINDER": "HcLc (chimera of 2A10: murine 2A10 VH and VL with human IgG constant regions) (antibody, V domains shown, also called chimeric antibody; chimeric form of the parental antibody) VH: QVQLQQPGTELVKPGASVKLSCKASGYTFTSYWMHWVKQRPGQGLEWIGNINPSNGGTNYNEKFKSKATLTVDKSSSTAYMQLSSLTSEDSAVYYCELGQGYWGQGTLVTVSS VL: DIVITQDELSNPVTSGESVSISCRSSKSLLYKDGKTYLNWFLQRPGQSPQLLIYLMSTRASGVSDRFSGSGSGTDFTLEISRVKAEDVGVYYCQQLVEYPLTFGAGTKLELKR", "MEASURED QUANTITY": "pKd", "ENDPOINT RESULT": 8.73}
{"BINDER": "H27L16 (antibody, human IgG1, kappa, V domains shown, IgG1 (L235A, G237A) / kappa; CAMPATH-1H signal (1-19) left out; also called H27FL L16FL) VH: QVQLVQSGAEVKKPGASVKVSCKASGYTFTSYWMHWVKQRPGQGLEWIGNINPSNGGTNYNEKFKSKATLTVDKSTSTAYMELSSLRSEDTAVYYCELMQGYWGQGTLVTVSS VL: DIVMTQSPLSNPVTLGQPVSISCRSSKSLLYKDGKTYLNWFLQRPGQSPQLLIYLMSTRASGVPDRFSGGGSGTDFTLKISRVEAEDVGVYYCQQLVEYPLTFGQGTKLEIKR", "MEASURED QUANTITY": "pKd", "ENDPOINT RESULT": 9.25}

Query binder follows.
Entry H20L16 (antibody, human IgG1, kappa, V domains shown, IgG1 (L235A, G237A) / kappa; CAMPATH-1H signal (1-19) left out) VH: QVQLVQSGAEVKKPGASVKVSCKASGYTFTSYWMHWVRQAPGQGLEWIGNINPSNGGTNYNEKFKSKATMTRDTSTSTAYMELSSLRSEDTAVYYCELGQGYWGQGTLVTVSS VL: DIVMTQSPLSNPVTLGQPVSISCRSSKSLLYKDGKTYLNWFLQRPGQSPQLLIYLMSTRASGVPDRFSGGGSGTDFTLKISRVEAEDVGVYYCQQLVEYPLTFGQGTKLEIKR , pKd reported as 8.74
